Ref: patent US5886165A

test system: normal human serum complement lysis of sheep red blood cells; test: CH50 hemolytic complement assay; settings: compared to saline control
[25] = 2'-5' internucleotide linkage (phosphodiester)

substance	50% Inhibition of Complement Lysis
SEQ ID NO 6: Phosphorothioate analog of SEQ ID NO 4, with nine 2'-5' linkages (antisense CUCTCGCACCCAUCTCTCTCCUUCT; all linkages phosphorothioate, nine 2'-5' linkages, further chemistry not given here)	> 500.0 µg/mL
SEQ ID NO 2: MBO with three 2'-5'-linkages at each end; 2'-5'-phosphodiester and 3'-5'-phosphorothioate linkages (antisense CUCTCGCACCCATCTCTCTCCUUCT; linkages [25]3 s18 [25]3 (s phosphorothioate, o phosphodiester), sugars by position and methylation of C not given here)	59.1 µg/mL
SEQ ID NO 7: Control phosphodiester oligonucleotide containing all 3'-5' linkages (CTCTCGCACCCATCTCTCTCCTTCT; all phosphodiester, sugars by position and methylation of C not given here) [reference compound]	> 500.0 µg/mL
SEQ ID NO 8: Control phosphorothioate oligonucleotide containing all 3'-5' linkages (CTCTCGCACCCATCTCTCTCCTTCT; all phosphorothioate, sugars by position and methylation of C not given here) [reference compound]	34.2 µg/mL
SEQ ID NO 3: Phosphorothioate analog of SEQ ID NO 1 (antisense CUCTCGCACCCATCTCTCTCCUUCT; phosphorothioate, chemistry not fully specified)	95.2 µg/mL
